- Measured target: human TLR9 (Homo sapiens, UniProt Q9NR96)
- Sequence (Q9NR96 26-1032): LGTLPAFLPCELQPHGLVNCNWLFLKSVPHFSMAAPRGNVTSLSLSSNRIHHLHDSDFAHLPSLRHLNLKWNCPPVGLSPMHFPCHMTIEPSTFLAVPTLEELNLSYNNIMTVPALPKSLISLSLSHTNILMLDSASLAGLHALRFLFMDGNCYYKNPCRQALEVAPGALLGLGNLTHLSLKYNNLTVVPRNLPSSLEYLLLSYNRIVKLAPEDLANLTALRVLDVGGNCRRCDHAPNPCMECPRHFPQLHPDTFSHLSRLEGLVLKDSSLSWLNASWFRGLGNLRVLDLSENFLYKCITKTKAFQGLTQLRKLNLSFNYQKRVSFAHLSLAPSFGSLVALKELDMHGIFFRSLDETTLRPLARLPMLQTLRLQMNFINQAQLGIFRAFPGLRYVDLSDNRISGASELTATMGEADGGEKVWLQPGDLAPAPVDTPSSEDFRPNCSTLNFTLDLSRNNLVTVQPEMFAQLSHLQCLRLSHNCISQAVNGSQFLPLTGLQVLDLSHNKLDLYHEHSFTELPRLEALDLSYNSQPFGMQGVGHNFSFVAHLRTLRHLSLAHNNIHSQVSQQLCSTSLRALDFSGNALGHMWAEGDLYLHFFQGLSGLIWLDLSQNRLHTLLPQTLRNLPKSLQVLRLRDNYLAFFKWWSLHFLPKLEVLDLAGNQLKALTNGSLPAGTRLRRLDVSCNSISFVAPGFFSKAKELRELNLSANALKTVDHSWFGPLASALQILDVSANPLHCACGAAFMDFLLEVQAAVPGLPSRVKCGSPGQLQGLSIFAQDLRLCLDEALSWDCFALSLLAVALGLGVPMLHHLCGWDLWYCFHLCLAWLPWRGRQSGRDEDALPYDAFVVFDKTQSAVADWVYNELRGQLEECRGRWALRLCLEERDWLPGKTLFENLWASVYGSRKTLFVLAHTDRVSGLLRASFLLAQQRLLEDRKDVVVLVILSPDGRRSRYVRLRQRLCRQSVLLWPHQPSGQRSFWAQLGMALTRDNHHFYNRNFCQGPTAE
- Measurement description: TLR9 inhibition reporter assay (HEK-Blue cells, SEAP reporter, ODN2006 stimulation)
- Setup conditions: HEK-Blue cells overexpressing human TLR9, SEAP reporter, ODN2006 5 nM
pIC50: −log10 of the molar value.
Below, each of the compounds is paired with its reported pIC50 value.

# Smiles text, pIC50
data = [
    ("Cc1cc(-c2[nH]c3ccc(C4CCN(Cc5ccn(C)n5)CC4)cc3c2C(C)C)cn2nncc12", "4.30 to 6.00"),
    ("Cc1ccc(-c2[nH]c3ccc(C4CCN(CC(C)(C)O)CC4)cc3c2C(C)C)c2ncnn12", "4.30 to 6.00"),
]

What does the data say about its pIC50? Entry: `CNC(=O)CN1CCC(c2ccc3[nH]c(-c4cc(C)c5c(cnn5C)c4)c(C(C)C)c3c2)CC1`
4.30 to 6.00

Suppose we examine the compound `CCc1c(-c2cccc3c2cnn3C)[nH]c2ccc(C3CCN(C(=O)CN4CCCN(C)CC4)CC3)cc12` ; what pIC50 value has been reported?
4.30 to 6.00

So what's the measured pIC50 for this one? `CC(C)c1c(-c2cnc3[nH]c(=O)oc3c2)[nH]c2ccc(C3CCNCC3)cc12`
4.30 to 6.00

# query: pIC50 of entry `Cc1cn2cc(-c3[nH]c4ccc(C5CCN(C(=O)CN(C)C)CC5)cc4c3C(C)C)ccc2n1`
6.00 to 7.00

Which pIC50 reading was recorded for the compound `COc1cc(-c2[nH]c3ccc(C4CCN(C5CCOCC5)CC4)cc3c2C(C)C)nn2ncnc12` ?
4.30 to 6.00

// lookup pIC50 for `CC(C)c1c(-c2c[nH]c3ccncc23)[nH]c2ccc(C3CCNCC3)cc12`
6.00 to 7.00

Look up pIC50: `Cc1cc(-c2[nH]c3ccc(C4CCN(C5COC5)CC4)cc3c2C(C)C)c2ccccc2n1`
4.30 to 6.00

Consider the compound `FC(F)Cc1c(-c2ccnc3[nH]ncc23)[nH]c2ccc(C3CCNCC3)cc12` and give its measured pIC50.
4.30 to 6.00
